- TARGET SYSTEM: T1, ASAP1-SH3 (residue 1087–1147) (mouse, UniProt Q9QWY8 1087-1147)
- T1 chain: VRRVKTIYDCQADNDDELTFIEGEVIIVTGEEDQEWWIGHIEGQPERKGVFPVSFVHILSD
- TEST DESCRIPTION: ITC
READOUT LABEL: Kd (µM)
Answers are plain numbers, in µM.

// recorded Kd for RPPNVDLTKFHKTSS [FYB1-PRM (residue 362–376)] : 7.59
